The measurements presented in this section are drawn from patent US20230235004A1.

# TARGET SYSTEM: T1, human MAdCAM expressed on cells (human, UniProt Q13477 19-382)
# T1 construct: whole, on cells
# T1 sequence (looked up): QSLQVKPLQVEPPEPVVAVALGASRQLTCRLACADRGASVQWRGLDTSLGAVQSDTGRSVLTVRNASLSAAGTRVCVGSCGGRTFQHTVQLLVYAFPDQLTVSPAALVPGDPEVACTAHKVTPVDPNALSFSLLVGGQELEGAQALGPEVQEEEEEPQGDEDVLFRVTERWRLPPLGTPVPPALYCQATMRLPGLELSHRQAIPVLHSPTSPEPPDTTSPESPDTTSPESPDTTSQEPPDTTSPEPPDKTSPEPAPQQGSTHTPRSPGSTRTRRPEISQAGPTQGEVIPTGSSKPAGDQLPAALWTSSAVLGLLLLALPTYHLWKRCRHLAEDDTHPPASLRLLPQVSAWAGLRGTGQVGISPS
# TEST NAME: cell binding
EXPERIMENTAL ENDPOINT: binding result

BINDER	RESULT
MAdCAM antibody Table 1 clone 47 (scFv) scFv: EVQLLESGGGLVQPGGSLRLSCAASGFSFSDYGMHWVRQAPGKGLEWVSAISGSGGSTYYADSVKGRFTISRDNSKNTLYLQMNSLRAEDTAVYYCARDGGWQPAAILDYWGQGTLVTVSSGGGGSGGGGSGGGGSGGGGSDIQMTQSPSSLSASVGDRVTITCRASQGISNNLNWYQQKPGKAPKLLIYDASNLETGVPSRFSGSGSGTDFTLTISSLQPEDFATYYCQQSYSTPLTFGGGTKVEIK	binds
MAdCAM antibody Table 1 clone 51 (scFv) scFv: EVQLLESGGGLVQPGGSLRLSCAASGFTFNNYGMNWVRQAPGKGLEWVSRINSDGSSTSYADSVKGRFTISRDNSKNTLYLQMNSLRAEDTAVYYCARGAYYYYYMDVWGQGTLVTVSSGGGGSGGGGSGGGGSGGGGSEIVMTQSPATLSVSPGERATLSCRASQSVSGSYLAWYQQKPGQAPRLLIYATSSRASGIPARFSGSGSGTEFTLTISSLQSEDFAVYYCQQYYSGLTFGQGTKVEIK	binds
